Reference source: PubChem BioAssay (NCI)

# System: HCT-15 colon
# Procedure Text: NCI-60 one-dose screen, 48 h (100 = growth as untreated, 0 = no growth, -100 = all killed)
# Test Parameters: 10 µM unless noted
This is part of a sample that, as a whole, favours compounds with a hit. Of some 83,000 tested, about 20% had one in any assay.
Class key for growth values: low-valued = under 10%, mid-valued = from 10% up to 70%, high-valued = 70% and over

// query Returns: class label. Input: C#C[C@]1(O)CC[C@H]2[C@@H]3CC=C4c5sc(Nc6ccc(Cl)cn6)nc5CC[C@]4(C)[C@H]3CC[C@@]21C
// result mid-valued

// query Returns: class label. Input: Nc1ncc(-c2ccc3ncnc(N4CCc5cc(F)c(Cl)cc54)c3c2)cc1CO
// result low-valued

// query Returns: class label. Input: O=C(N/N=C/c1ccc(Cl)s1)c1[nH]c2ccc(Br)cc2c1-c1ccccc1
// result mid-valued

// query Returns: class label. Input: Cc1ccccc1NC(=O)/C=C/c1ccc(OCCOc2ccc3c(C)cc(=O)oc3c2)cc1
// result high-valued

// query Returns: class label. Input: C#Cc1nc(C2=C(C)C(OC(C)=O)/C(=N/OC(C)=O)C2)cs1 (centres undefined)
// result low-valued

// query Returns: class label. Input: COc1cc(OC)c(C2SCC(=O)N2Nc2ncnc3ccccc23)cc1OC (centres undefined)
// result high-valued

// query Returns: class label. Input: Nc1cc(-c2c[nH]c3ccc(Cl)cc23)nc2cc(-c3c[nH]c4ccc(Cl)cc34)nn12
// result mid-valued

// query Returns: class label. Input: Nc1c(C(=O)Nc2ccc(Cl)cc2)sc2nc(-c3cnccn3)cc(-c3cccs3)c12
// result mid-valued

// query Returns: class label. Input: NS(=O)(=O)c1cccc(Nc2nc(SCC(=O)c3ccc(Cl)cc3)nc3ccccc23)c1
// result high-valued
